Measured values drawn from paper PMC6027465 for this set.

Tgt: VchCAβ (Vibrio cholerae)
Sequence (A0A086SLX8 1-222): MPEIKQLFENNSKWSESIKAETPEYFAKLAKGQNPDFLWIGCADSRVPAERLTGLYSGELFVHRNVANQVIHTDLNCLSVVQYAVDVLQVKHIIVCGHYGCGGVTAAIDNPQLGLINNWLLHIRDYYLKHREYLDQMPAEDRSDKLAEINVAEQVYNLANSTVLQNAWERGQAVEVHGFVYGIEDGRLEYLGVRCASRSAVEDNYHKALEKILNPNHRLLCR
pKi: −log10 of the molar value.
Parameter measured: pKi

[[record]]
compound = "C#CCNC(=O)c1ccc(S(N)(=O)=O)cc1 [3c, N-(Prop-2-Yn-1-Yl)-4-Sulfamoylbenzamide]"
parameter_measured = "pKi"
val = 6.13

[[record]]
compound = "COC(=O)[C@H](Cc1ccccc1)NC(=O)c1ccc(S(N)(=O)=O)cc1"
parameter_measured = "pKi"
val = 6.18

[[record]]
compound = "COC(=O)CC[C@@H](NC(=O)c1ccc(S(N)(=O)=O)cc1)C(=O)OC"
parameter_measured = "pKi"
val = 6.06

[[record]]
compound = "NS(=O)(=O)c1ccc(C(=O)N2CCCCC2)cc1"
parameter_measured = "pKi"
val = 6.13

[[record]]
compound = "CCOC(=O)CCCNC(=O)c1ccc(S(N)(=O)=O)cc1 [3k, Ethyl 4-(4-Sulfamoylbenzamido)Butanoate]"
parameter_measured = "pKi"
val = 6.02

[[record]]
compound = "COC(=O)C[C@@H](NC(=O)c1ccc(S(N)(=O)=O)cc1)C(=O)OC"
parameter_measured = "pKi"
val = 6.04

[[record]]
compound = "COC(=O)[C@H](CC(C)C)NC(=O)c1ccc(S(N)(=O)=O)cc1 [3h, Methyl (4-Sulfamoylbenzoyl)-L-Leucinate]"
parameter_measured = "pKi"
val = 6.14


###

Tgt: hCA II (Homo sapiens, UniProt P00918)
Construct: recombinant
Parameter measured: Ki

[[record]]
compound = "CCCNC(=O)c1ccc(S(N)(=O)=O)cc1 [3b, N-Propyl-4-Sulfamoylbenzamide]"
tgt = "hCA II (Homo sapiens, UniProt P00918)"
val = "3.5 nM"

[[record]]
compound = "COC(=O)[C@H](Cc1ccccc1)NC(=O)c1ccc(S(N)(=O)=O)cc1"
tgt = "hCA II (Homo sapiens, UniProt P00918)"
val = "3.3 nM"

[[record]]
compound = "NS(=O)(=O)c1ccc(C(=O)N2CCOCC2)cc1"
tgt = "hCA II (Homo sapiens, UniProt P00918)"
val = "6.2 nM"

[[record]]
compound = "COC(=O)CC[C@@H](NC(=O)c1ccc(S(N)(=O)=O)cc1)C(=O)OC"
tgt = "hCA II (Homo sapiens, UniProt P00918)"
val = "5.2 nM"

[[record]]
compound = "CCOC(=O)CCCNC(=O)c1ccc(S(N)(=O)=O)cc1 [3k, Ethyl 4-(4-Sulfamoylbenzamido)Butanoate]"
tgt = "hCA II (Homo sapiens, UniProt P00918)"
val = "4 nM"

[[record]]
compound = "COC(=O)C(NC(=O)c1ccc(S(N)(=O)=O)cc1)C(C)C (racemic) [3f, Methyl (4-Sulfamoylbenzoyl)-DL-Valinate]"
tgt = "hCA II (Homo sapiens, UniProt P00918)"
val = "4.5 nM"

[[record]]
compound = "COC(=O)[C@H](CC(C)C)NC(=O)c1ccc(S(N)(=O)=O)cc1 [3h, Methyl (4-Sulfamoylbenzoyl)-L-Leucinate]"
tgt = "hCA II (Homo sapiens, UniProt P00918)"
val = "3.7 nM"

